System: SW-620 colon
TEST DETAILS: NCI-60 one-dose screen, 48 h (100 = growth as untreated, 0 = no growth, -100 = all killed)
MEASUREMENT SETUP: 10 µM unless noted
The panel holds about 83,000 compounds, 20% with a hit somewhere; the sample as a whole holds those more often.
RECORDED METRIC: growth (%)
Numbers only here, please. The scale is %.

INSERT INTO assay_data (compound, experimental_target, experimental_value) VALUES
  ('N#CSCc1ccc(CSC#N)c(Cl)c1', 'SW-620 colon', 25.4),
  ('Cc1cc(C(C)(CC(C)C)c2ccc(O)c(C)c2)ccc1O', 'SW-620 colon', 117),
  ('CC(C)c1ccc2nc3ccc(C(=O)NCCN4CCN(c5ccccc5)CC4)cn3c(=O)c2c1', 'SW-620 colon', 87.4);

Form: compound = Oc1c(Cl)c2ccccc2c2ccccc12 ; growth = 111

So for O=C1c2ccccc2C(=O)N1c1ccccc1 , the logged growth turned out to be 109

Reported growth for O[C@H]1[C@H]2c3cc4c(cc3CN3CCC(=C[C@@H]1O)[C@H]23)OCO4 was 30.4

Measured growth of CCN(CC)CCOc1ccc(-c2nc3cc(Cl)ccc3s2)cc1 : -52.9

growth for CCCCCC(CCCCC)C(=O)O is 110

====

Tested on: OVCAR-3 ovarian
TEST DETAILS: NCI-60 one-dose screen, 48 h (100 = growth as untreated, 0 = no growth, -100 = all killed)
MEASUREMENT SETUP: 10 µM unless noted
Compounds without any hit were thinned out: in the full panel of roughly 83,000, 20% have a hit. Activity calls are given as the source filed them. The calls were made as follows: active = growth percent below 10; inactive = the rest.
RECORDED METRIC: growth

Known results for compounds:
INSERT INTO assay_data (compound, recorded_metric, experimental_value) VALUES
  ('Cc1ccc(C(=Nc2ccccc2)N=P(c2ccccc2)(c2ccccc2)c2ccccc2)cc1', 'growth', '-37.4% (active)'),
  ('CCOC(=O)/C=C/c1ccc([N+](=O)[O-])o1', 'growth', '17.1% (inactive)'),
  ('O=C1C=CC(=O)N1C1c2ccccc2-c2ccccc21', 'growth', '35.4% (inactive)'),
  ('CN=C(N)N/N=C(\C)c1ccc2c(c1)Cc1cc(/C(C)=N/NC(N)=NC)ccc1-2', 'growth', '-59.6% (active)'),
  ('CC1(C)CC([P+](c2ccccc2)(c2ccccc2)c2ccccc2)=NN1', 'growth', '23.7% (inactive)'),
  ('N[C@H](C(=O)O)[C@@H]1CC(Cl)=NO1', 'growth', '32.4% [20 µM] (inactive)');

# growth measured on OVCAR-3 ovarian for item O=Nc1ccccc1N=O = 118% (inactive)

Bench note, OVCAR-3 ovarian: CNc1ccc(N)cc1 , growth reads 112% (inactive)

Reported OVCAR-3 ovarian growth for item Oc1c(Br)cc(Cl)cc1C(c1cc(Cl)cc(Br)c1O)C(Cl)(Cl)Cl was 12.7% (inactive)

# CCC(=O)Sc1ccccc1C(=O)Nc1ccc(Cl)cc1 with OVCAR-3 ovarian: growth is 39.9% (inactive)

I looked up O=C(/C=C\c1ccccc1)N1c2ccccc2CC1c1c[nH]c2ccccc12 (configuration not stated) and its growth for OVCAR-3 ovarian was 75% (inactive)

Field growth (system: OVCAR-3 ovarian) for entry COc1ccc(N=N/N=c2\sc3cc(OC)ccc3n2C)cc1 = 97.8% (inactive)

====

Test system: HCT-15 colon
TEST DETAILS: NCI-60 one-dose screen, 48 h
MEASUREMENT SETUP: 10 µM unless noted
About 83,000 compounds went through this panel and 20% of them were active in at least one assay; those are over-represented in the sample as a whole. The source made the active and inactive calls. The calls were made as follows: active = growth percent below 10; inactive = the rest.
Choose the fitting class; nothing outside active, inactive is accepted.

Would you please look over these solved cases?
INSERT INTO results (molecule, discrete_label) VALUES
  ('O[C@H]1[C@H]2c3cc4c(cc3CN3CCC(=C[C@@H]1O)[C@H]23)OCO4', 'inactive'),
  ('c1ccc2c(c1)Nc1cc3ccccc3cc1N2', 'inactive'),
  ('NC1=CC(=O)c2ccccc2C1=O', 'inactive'),
  ('CCCCCCCCCCCCCCCC[N+](C)(CCO)Cc1cnc[nH]1 (stereo unspecified)', 'inactive'),
  ('COc1ccc2nc3cc(Cl)ccc3c(NCCNc3c4ccc(Cl)cc4nc4ccc(OC)cc34)c2c1', 'active');

We next turn to a different molecule, shown below.
Task: Test call for this molecule, please: CCCCCCCCCCCCCCNCc1ccccc1
Output: inactive

====

Test system: SF-268 CNS
TEST DETAILS: NCI-60 one-dose screen, 48 h
MEASUREMENT SETUP: 10 µM unless noted
Compounds without any hit were thinned out: in the full panel of roughly 83,000, 20% have a hit. Calls of active or inactive are those of the source. The calls were made as follows: active = growth percent below 10; inactive = the rest.
Give one outcome, nothing more. List: active, inactive

Solved cases below.
INSERT INTO results (molecule, discrete_label) VALUES
  ('CN(C)CCOc1ccc2c(c1)C(=O)/C(=C\c1ncc([N+](=O)[O-])n1C)C2', 'active'),
  ('O=C(O)c1ccc2c3c(ncnc13)-c1ccccc1C2=O', 'inactive'),
  ('CN(C)C(=O)SC1=C(c2c(Cl)cccc2Cl)C(=O)c2ccccc21', 'inactive');

Task: Lab log entry: COc1ccccc1/C=C\C(=O)c1ccccc1 — outcome as called in the assay?
Output: inactive

Task: Would you mind telling me which call this test gave N#CSCc1ccc(Cl)c(CSC#N)c1 ?
Output: inactive

Task: Kindly provide the recorded test outcome for the following molecule: CN(C)c1ccc(N=Nc2cccc3ccccc23)cc1
Output: inactive

Task: Kindly provide the recorded test outcome for the following molecule: C/C=C1\SC(=S)NC1=O
Output: inactive

Task: Recorded test outcome, item CC(=O)C(=Cc1ccc(C=C(C(C)=O)C(C)=O)cc1)C(C)=O
Output: inactive

Task: Called result for O=C1c2ccccc2C(=O)c2sc(Nc3ccc(Cl)cc3)nc21
Output: inactive

====

Tested on: OVCAR-3 ovarian
TEST DETAILS: NCI-60 one-dose screen, 48 h (100 = growth as untreated, 0 = no growth, -100 = all killed)
MEASUREMENT SETUP: 10 µM unless noted
The panel holds about 83,000 compounds, 20% with a hit somewhere; the sample as a whole holds those more often.
# key: entry, value: growth
Write it as a number; the unit % goes unstated.

The examples below pair each entry with its known result.
INSERT INTO assay_data (molecule, experimental_value) VALUES
  ('CC(=O)ON=C1C=CC(=C(C#N)c2ccccc2)C=C1', -30.6),
  ('CCC(CC)COC(=O)c1ccc(O)c(O)c1', 78.1),
  ('O=C1c2ccccc2C(=O)c2sc(Nc3ccc(Cl)cc3)nc21', -39.6);

// growth value for CCC1OC(OC)C=CC1=O (configuration not stated) : 95.4

Per the records, this molecule ( Cn1c2ccccc2c2nnc(N/N=C/c3ccccn3)nc21 ) has growth equal to 23.5

Form: molecule = CNC(=O)N/N=C/c1ccc([N+](=O)[O-])o1 ; growth = 103

# growth of O=C(Nc1ccccc1)c1cc(Cl)ccc1O = 37.4

====

Let's look at some molecules and their measured growth.
System: OVCAR-3 ovarian
TEST DETAILS: NCI-60 one-dose screen, 48 h (100 = growth as untreated, 0 = no growth, -100 = all killed)
MEASUREMENT SETUP: 10 µM unless noted
This is part of a sample that, as a whole, favours compounds with a hit. Of some 83,000 tested, about 20% had one in any assay.
Note: unit % is implicit; provide only the numeric part.

INSERT INTO assay_data (molecule, experimental_target, recorded_metric, measurement_units, experimental_value) VALUES
  ('Cn1c2c(c3ccccc31)CCN1C[C@@H]3CCCC[C@H]3C[C@@H]21', 'OVCAR-3 ovarian', 'growth', '%', -74.3),
  ('CCC(c1cccc(O)c1)C(CC)c1cccc(O)c1 (stereo not given)', 'OVCAR-3 ovarian', 'growth', '%', 77.3);

Field growth (entry N#Cc1ccc([N+](=O)[O-])o1 ) reads 118

Given item Cc1ccc(N=C=C(c2ccccc2)c2ccccc2)cc1 , the value recorded as its growth is 118

====

Tested on: TK-10 renal
TEST DETAILS: NCI-60 one-dose screen, 48 h (100 = growth as untreated, 0 = no growth, -100 = all killed)
MEASUREMENT SETUP: 10 µM unless noted
The panel holds about 83,000 compounds, 20% with a hit somewhere; the sample as a whole holds those more often.
Output: class label from growth. Mapping: low = under 60%, middle = from 60% up to 90%, high = 90% and over

INSERT INTO measurements (compound, discrete_label) VALUES
  ('C=CCOc1ccc(N=NC(C#N)C#N)cc1', 'middle');

Task: Record O=C1C2=C(Nc3cc([N+](=O)[O-])ccc3N2)OC1c1c2ccccc2cc2ccccc12 (stereo unspecified) — which class?
Output: middle

Task: Band for the recorded growth of CC(C)c1ccc2nc3ccc(C(=O)NCCN4CCN(c5ccccc5)CC4)cn3c(=O)c2c1 ?
Output: high

Task: Assign a category based on measured growth for Oc1ccc(/C=N/NC(=S)Nc2ccccc2)nc1 and give only the class name.
Output: low

Task: Any idea which band N#CSCc1c(Cl)cccc1Cl is in?
Output: high

Task: Sort CCCCCCCCCCCCCCCC[N+](C)(CCO)Cc1cnc[nH]1 (stereo unspecified) into one of the categories.
Output: low

Task: Using the reported growth, which band applies to Nc1nc(N)c2c(ccc3c2ccn3Cc2cccc([N+](=O)[O-])c2)n1 ?
Output: low

Task: Which bin should I file COC(=O)c1nc(=S)[nH]c(C(=O)OC)c1C(=O)c1ccc2ccccc2c1 under?
Output: high

Task: Looking at NC(N)=N/N=C/c1ccc([N+](=O)[O-])o1 , which class would you pick?
Output: high
